run.description: Selectivity for HCV isolate BK NS4A-tethered single chain NS3 serine protease over human neutrophil elastase
quantity.kind: Selectivity ratio
Answer using only a numeral; do not append any unit.

Solved entries:
{"molecule": "C=CCNC(=O)C(=O)C(CCC)NC(=O)[C@@H]1[C@@H]2[C@H](CN1C(=O)[C@@H](NC(=O)N[C@H](CN1Cc3ccccc3S1(=O)=O)C1CCCCC1)C(C)(C)C)C2(C)C (stereo partly drawn)", "Selectivity ratio": 55}
{"molecule": "C=CCNC(=O)C(=O)C(CCC)NC(=O)[C@@H]1[C@@H]2[C@H](CN1C(=O)[C@@H](NC(=O)N[C@H](CN1Cc3sccc3S1(=O)=O)C(C)(C)C)C(C)(C)C)C2(C)C (stereo partly drawn)", "Selectivity ratio": 150}
{"molecule": "C=CCNC(=O)C(=O)C(CCC)NC(=O)[C@@H]1[C@@H]2[C@H](CN1C(=O)[C@@H](NC(=O)N[C@H](CN1CCCN(C)S1(=O)=O)C(C)(C)C)C(C)(C)C)C2(C)C (stereo partly drawn)", "Selectivity ratio": 490}
{"molecule": "C=CCNC(=O)C(=O)C(CCC)NC(=O)[C@@H]1[C@@H]2[C@H](CN1C(=O)[C@@H](NC(=O)N[C@H](CN1Cc3ccccc3S1(=O)=O)C(C)(C)C)C1(C)CCCCC1)C2(C)C (stereo partly drawn)", "Selectivity ratio": 50}
{"molecule": "C=CCNC(=O)C(=O)C(CCC)NC(=O)[C@@H]1[C@@H]2[C@H](CN1C(=O)[C@@H](NC(=O)NC1(CN3Cc4sccc4S3(=O)=O)CCCCC1)C(C)(C)C)C2(C)C (stereo partly drawn)", "Selectivity ratio": 130}
{"molecule": "C=CCNC(=O)C(=O)C(CC1CC1)NC(=O)[C@@H]1[C@@H]2[C@H](CN1C(=O)[C@@H](NC(=O)N[C@H](CN1Cc3ccccc3S1(=O)=O)C(C)(C)C)C(C)(C)C)C2(C)C (stereo partly drawn)", "Selectivity ratio": 1600}
{"molecule": "C=CCNC(=O)C(=O)C(CCC)NC(=O)[C@@H]1[C@@H]2[C@H](CN1C(=O)[C@@H](NC(=O)N[C@H](CN1Cc3sccc3S1(=O)=O)C(C)(C)C)C1(C)CCCCC1)C2(C)C (stereo partly drawn)", "Selectivity ratio": 68}

Prompt: Given the entry C=CCNC(=O)C(=O)C(CCC)NC(=O)[C@@H]1[C@@H]2[C@H](CN1C(=O)[C@@H](NC(=O)N[C@H](CN1Cc3ccccc3S1(=O)=O)C(C)(C)C)C1CCCCC1)C2(C)C (stereo partly drawn) , report its measured Selectivity ratio.
Response: 19
